Biological target: NAD-dependent protein deacetylase sirtuin-1 (Homo sapiens)
Sequence (Q96EB6 whole entry): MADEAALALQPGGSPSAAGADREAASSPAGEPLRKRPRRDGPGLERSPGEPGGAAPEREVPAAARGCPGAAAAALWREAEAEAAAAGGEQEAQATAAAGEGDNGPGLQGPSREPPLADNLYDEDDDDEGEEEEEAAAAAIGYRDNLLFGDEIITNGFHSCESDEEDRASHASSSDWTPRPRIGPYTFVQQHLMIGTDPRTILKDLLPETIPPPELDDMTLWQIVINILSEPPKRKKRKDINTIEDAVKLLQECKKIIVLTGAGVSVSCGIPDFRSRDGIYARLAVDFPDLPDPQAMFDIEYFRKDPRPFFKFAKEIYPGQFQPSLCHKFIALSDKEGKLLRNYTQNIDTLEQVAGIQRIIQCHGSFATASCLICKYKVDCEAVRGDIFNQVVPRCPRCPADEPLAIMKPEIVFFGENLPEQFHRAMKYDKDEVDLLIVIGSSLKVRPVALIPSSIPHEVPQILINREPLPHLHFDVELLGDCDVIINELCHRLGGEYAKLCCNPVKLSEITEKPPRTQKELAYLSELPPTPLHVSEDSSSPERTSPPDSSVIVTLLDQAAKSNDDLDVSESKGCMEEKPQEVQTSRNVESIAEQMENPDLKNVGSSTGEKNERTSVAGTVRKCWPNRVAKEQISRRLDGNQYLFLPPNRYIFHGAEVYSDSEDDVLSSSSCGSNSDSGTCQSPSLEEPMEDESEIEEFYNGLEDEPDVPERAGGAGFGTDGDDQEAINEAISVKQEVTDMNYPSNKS
pIC50: −log10 of the molar value.
Outcome label depends on pIC50 relative to 6: at/above gives True, below gives False.

1) COC(=O)[C@H](C)NC(=O)[C@H](CCCCNC(=O)CBr)NC(=O)[C@H](C)NC(C)=O : False

We now examine a further compound.
Exam item: Hi team, for CNC(=O)[C@H](C)NC(=O)[C@H](CCCCNC(=O)C(C)(C)C)NC(=O)[C@H](C)NC(C)=O , is the recorded pIC50 at or above 6?
Marked response: False

====

target: NAD-dependent protein deacetylase sirtuin-1 (Homo sapiens); test: Inhibition of GST-SIRT1 at 200 uM after 1 hr by Fluor de Lys fluorescence assay
quantity_kind: inhibition (%)
Numbers only, in %.

1. CC(=O)N[C@@H](C)C(=O)N[C@@H](CCCCNC(=O)CC(C)C)C(=O)N[C@@H](C)C(=O)O : 94
2. COC(=O)[C@H](C)NC(=O)[C@H](CCCCNC(=O)c1cccnc1)NC(=O)[C@H](C)NC(C)=O : 9
3. COC(=O)[C@H](C)NC(=O)[C@H](CCCCNC(=O)Cc1cccnc1)NC(=O)[C@H](C)NC(C)=O : 10
4. CC(=O)N[C@@H](C)C(=O)N[C@@H](CCCCNC(=O)C=C(C)C)C(=O)N[C@@H](C)C(=O)O : 95
5. COC(=O)[C@H](C)NC(=O)[C@H](CCCCNS(=O)(=O)c1ccc(C)cc1)NC(=O)[C@H](C)NC(C)=O : 1
6. COC(=O)[C@H](C)NC(=O)[C@H](CCCCNC(=O)OCc1ccccc1)NC(=O)[C@H](C)NC(C)=O : 11

Next compound, please.
Exam item: Supply recorded inhibition for C/C=C/C(=O)NCCCC[C@H](NC(=O)[C@H](C)NC(C)=O)C(=O)N[C@@H](C)C(=O)OC here.
Marked response: 20

====

Target: UniProt:Q8IXJ6
Sequence (whole entry): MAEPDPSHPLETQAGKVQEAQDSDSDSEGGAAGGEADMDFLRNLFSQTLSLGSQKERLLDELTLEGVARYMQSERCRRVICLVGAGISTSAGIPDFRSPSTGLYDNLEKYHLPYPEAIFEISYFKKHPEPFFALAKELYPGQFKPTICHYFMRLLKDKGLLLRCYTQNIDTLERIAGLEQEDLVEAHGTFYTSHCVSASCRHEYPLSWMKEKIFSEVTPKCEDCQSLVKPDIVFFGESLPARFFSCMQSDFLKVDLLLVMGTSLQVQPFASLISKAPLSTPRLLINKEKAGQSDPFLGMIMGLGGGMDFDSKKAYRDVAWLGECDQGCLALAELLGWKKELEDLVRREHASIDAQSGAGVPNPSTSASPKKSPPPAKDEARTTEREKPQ
Assay: Inhibition of GST-SIRT2 at 200 uM after 1 hr by Fluor de Lys fluorescence assay
Label rule, in plain words: inhibition of 20% and up is fulfilled, under 20% is not fulfilled.

Example entries begin here.
1) CNC(=O)[C@H](C)NC(=O)[C@H](CCCCNC(=O)C=C(C)C)NC(=O)[C@H](C)NC(C)=O : fulfilled
2) COC(=O)[C@H](C)NC(=O)[C@H](CCCCNC(=O)Cc1ccccn1)NC(=O)[C@H](C)NC(C)=O : fulfilled
3) CP(C)(=S)NCCCC[C@H](NC(=O)OCc1ccccc1)C(=O)Nc1ccccc1 : fulfilled
4) COC(=O)[C@H](C)NC(=O)[C@H](CCCCNC(=O)CBr)NC(=O)[C@H](C)NC(C)=O : not fulfilled
5) COC(=O)[C@H](C)NC(=O)[C@H](CCCCNC(=O)N(C)C)NC(=O)[C@H](C)NC(C)=O : not fulfilled
6) CNC(=O)[C@H](C)NC(=O)[C@H](CCCCNC(=O)c1ccc[nH]1)NC(=O)[C@H](C)NC(C)=O : fulfilled

Exam item: Entry CNC(=O)[C@H](C)NC(=O)[C@H](CCCCNC(=O)c1ccc(N(C)C)cc1)NC(=O)[C@H](C)NC(C)=O : is its inhibition no less than 20%?
Marked response: fulfilled

====

target: NAD-dependent protein deacetylase sirtuin-1 (Homo sapiens); experiment: Inhibition of GST-SIRT1 at 200 uM after 1 hr by Fluor de Lys fluorescence assay
quantity_kind: inhibition (%)
Give bare numbers, in %.

1) CNC(=O)[C@H](C)NC(=O)[C@H](CCCCNC(=O)c1ccc[nH]1)NC(=O)[C@H](C)NC(C)=O : 36

Dear reader, for each entry below, please note its inhibition.
1. C/C=C(\C)C(=O)NCCCC[C@H](NC(=O)[C@H](C)NC(C)=O)C(=O)N[C@@H](C)C(=O)OC
2. COC(=O)[C@H](C)NC(=O)[C@H](CCCCNS(=O)(=O)c1ccc([N+](=O)[O-])cc1)NC(=O)[C@H](C)NC(C)=O
3. CC(=O)N[C@@H](C)C(=O)N[C@@H](CCCCNC(C)=[Se])C(=O)N[C@@H](C)C(=O)O

Marked response:
1: 39; 2: 0; 3: 100

List the reported inhibition of each compound below.
1. CC(=O)N[C@@H](C)C(=O)N[C@@H](CCCCNC(C)=S)C(=O)N[C@@H](C)C(=O)O
2. COC(=O)NCCCC[C@H](NC(=O)[C@H](C)NC(C)=O)C(=O)N[C@@H](C)C(=O)OC
3. COC(=O)[C@H](C)NC(=O)[C@H](CCCCNC(=O)CCl)NC(=O)[C@H](C)NC(C)=O

Marked response:
[100, 8, 19]

Exam item: Indicate the recorded inhibition value for this compound: COC(=O)[C@H](C)NC(=O)[C@H](CCCCNC(C)=O)NC(=O)[C@H](C)NC(C)=O
Marked response: 39

====

Target: NAD-dependent protein deacetylase sirtuin-1 (Homo sapiens) (UniProt Q96EB6)
Sequence (whole entry): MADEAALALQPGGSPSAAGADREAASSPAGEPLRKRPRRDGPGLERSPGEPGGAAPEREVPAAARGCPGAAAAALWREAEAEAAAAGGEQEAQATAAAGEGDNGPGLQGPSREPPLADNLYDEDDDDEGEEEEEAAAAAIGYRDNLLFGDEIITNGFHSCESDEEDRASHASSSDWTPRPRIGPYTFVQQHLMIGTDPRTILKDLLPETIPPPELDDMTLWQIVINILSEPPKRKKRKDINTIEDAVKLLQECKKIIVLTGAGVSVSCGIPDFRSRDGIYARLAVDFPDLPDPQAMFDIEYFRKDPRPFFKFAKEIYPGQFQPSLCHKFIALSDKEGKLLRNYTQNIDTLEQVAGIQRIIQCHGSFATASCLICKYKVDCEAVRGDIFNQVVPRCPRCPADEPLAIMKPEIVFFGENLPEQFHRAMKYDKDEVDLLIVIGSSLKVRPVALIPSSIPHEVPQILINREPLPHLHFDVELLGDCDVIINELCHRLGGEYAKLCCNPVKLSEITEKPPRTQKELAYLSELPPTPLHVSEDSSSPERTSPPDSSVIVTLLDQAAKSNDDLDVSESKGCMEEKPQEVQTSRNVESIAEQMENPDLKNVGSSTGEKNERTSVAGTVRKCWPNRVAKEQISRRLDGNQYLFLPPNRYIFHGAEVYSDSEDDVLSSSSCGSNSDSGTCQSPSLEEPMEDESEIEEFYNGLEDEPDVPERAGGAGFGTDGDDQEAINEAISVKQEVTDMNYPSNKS
Experiment: Inhibition of GST-SIRT1 at 200 uM after 1 hr by Fluor de Lys fluorescence assay
Everything with inhibition lower than 50% is Not met; everything else, including exactly 50%, is Met.

1) COC(=O)[C@H](C)NC(=O)[C@H](CCCCNC(=O)C=C(C)C)NC(=O)[C@H](C)NC(C)=O : Met
2) COC(=O)[C@H](C)NC(=O)[C@H](CCCCNS(=O)(=O)C(F)(F)F)NC(=O)[C@H](C)NC(C)=O : Not met
3) CNC(=O)[C@H](C)NC(=O)[C@H](CCCCNC(=O)c1cccn1C)NC(=O)[C@H](C)NC(C)=O : Not met
4) COC(=O)[C@H](C)NC(=O)[C@H](CCCCNC(=O)CBr)NC(=O)[C@H](C)NC(C)=O : Not met
5) CNC(=O)[C@H](C)NC(=O)[C@H](CCCCNC(C)=O)NC(=O)[C@H](C)NC(C)=O : Met
6) CC(=[Se])NCCCC[C@H](NC(=O)OCc1ccccc1)C(=O)Nc1ccccc1 : Met
7) COC(=O)[C@H](C)NC(=O)[C@H](CCCCNC(=O)c1ccccc1)NC(=O)[C@H](C)NC(C)=O : Not met
8) COC(=O)[C@H](C)NC(=O)[C@H](CCCCNC(=O)C(C)(C)C)NC(=O)[C@H](C)NC(C)=O : Met
9) CC(=O)N[C@@H](C)C(=O)N[C@@H](CCCCNC(=S)CC(C)C)C(=O)N[C@@H](C)C(=O)O : Met

Okay, next one:
Exam item: API: above_or_equal(metric=inhibition, cutoff=50%) for item COC(=O)[C@H](C)NC(=O)[C@H](CCCCNC(=O)c1ccccn1)NC(=O)[C@H](C)NC(C)=O
Marked response: Not met
